The following compounds are listed with their measured GI50 at 44 h values.
- experimental.details: Antiproliferative activity against HUVEC assessed as reduction in cell number incubated for 44 hrs by alamar blue based fluorescence assay
- condition.notes: human, HUVEC cells

Enquiry: What value of measured GI50 at 44 h is listed for COc1cc(O)cc2c1C(=O)[C@H](Cc1ccc(O)c(O)c1)CO2 ?
Return: 14 µM

Enquiry: Also need COc1c(O)cc(O)c2c1OC/C(=C\c1ccc(O)cc1)C2=O , thanks.
Return: > 100 µM

Enquiry: Now the same for O=Cc1ccc(O)cc1 [4-HYDROXYBENZALDEHYDE]
Return: > 100 µM

Enquiry: Same again, this time with O=C1c2c(O)cc(O)cc2OC[C@]12Cc1cc3c(cc12)OCO3
Return: > 100 µM

Enquiry: Now the compound COc1c(O)cc(O)c2c1OC[C@@H](Cc1ccc(O)cc1)C2=O
Return: > 100 µM

Enquiry: Query O=C1c2c(O)cc(O)cc2OC[C@H]1Cc1ccc(O)c(O)c1 next
Return: > 100 µM

src = ChEMBL document CHEMBL4316633
